- measurementDescription: Solubility in water at 25 degC
- Type: physicochemical
reportedEndpoint: solubility (µg/mL)
One number for each entry, in µg/mL.

Which solubility value is on record for CCc1cc(C)cc(CC)c1-c1c(OC(=O)C(C)(C)C)n2n(c1=O)CCOCC2 ? 200

###

- measurementDescription: Aqueous hydrolysis of the compound at pH 9 at 20 degC
- Type: physicochemical
- conditionDescription: aqueous solution, read-out: DT50 (converted)
reportedEndpoint: half-life (h)
Answers are plain numbers, in h.

Which half-life value is on record for CCc1cc(C)cc(CC)c1-c1c(OC(=O)C(C)(C)C)n2n(c1=O)CCOCC2 ? 7.2

###

- measurementDescription: Lipophilicity, log P of the compound at pH5 at 20 degC
- Assay type: physicochemical
- conditionDescription: buffer, pH 5
reportedEndpoint: logD

Which logD value is on record for CCc1cc(C)cc(CC)c1C1C(=O)N2CCOCCN2C1=O [PINOXADEN DIONE] ? 0.62

###

- measurementDescription: Lipophilicity, log P of the compound at pH7 at 20 degC
- Format: physicochemical
- conditionDescription: buffer, pH 7
reportedEndpoint: logD
Give bare numbers.

Which logD value is on record for CCc1cc(C)cc(CC)c1C1C(=O)N2CCOCCN2C1=O [PINOXADEN DIONE] ? -1.1

###

- measurementDescription: Solubility in water at pH5 at 20 degC
- Format: physicochemical
- conditionDescription: pH 5
reportedEndpoint: solubility (µg/mL)
Numbers only, in µg/mL.

Which solubility value is on record for CCc1cc(C)cc(CC)c1C1C(=O)N2CCOCCN2C1=O ? 5200

###

- measurementDescription: Aqueous hydrolysis of the compound at pH 7 at 20 degC
- Assay type: physicochemical
- conditionDescription: aqueous solution, read-out: DT50 (converted)
Exercise: for every item that follows, state its recorded half-life.

>>> assayresult("CCc1cc(C)cc(CC)c1C1C(=O)N2CCOCCN2C1=O")
"< 1 days"

Continue with the compound presented below.
Which half-life value is on record for CCc1cc(C)cc(CC)c1-c1c(OC(=O)C(C)(C)C)n2n(c1=O)CCOCC2 ? 14.9 days

###

- measurementDescription: Dissociation constant, pKa of the compound
- Assay type: physicochemical
reportedEndpoint: pKa
One number for each entry.

Which pKa value is on record for CCc1cc(C)cc(CC)c1C1C(=O)N2CCOCCN2C1=O ? 3.82

###

- Tested on: Avena fatua
- measurementDescription: Herbicidal activity against Avena fatua assessed as weed control at 30 g/ha under greenhouse measured after 21 days by post-emergence test
- Type: functional
reportedEndpoint: Activity (%)
One number for each entry, in %.

As a guide, the following entries are already answered.
>>> assayresult("CCc1cc(C)cc(CC)c1C1C(=O)N2COC(CC)CN2C1=O (stereo not given)")
100
>>> assayresult("CCc1cc(C)cc(CC)c1C1C(=O)N2CC(C)OC(C)CN2C1=O (stereo not given)")
90
>>> assayresult("CCc1cc(C)cc(CC)c1C1C(=O)N2C(C)COCC(C)N2C1=O (stereo not given)")
50
>>> assayresult("Cc1cc(C)c(C2C(=O)N3CCOCCN3C2=O)c(Br)c1")
40
>>> assayresult("CCc1cc(C)cc(CC)c1C1C(=O)N2C[C@H]3CC[C@@H](CN2C1=O)O3 (stereo not given in full)")
80
>>> assayresult("CCc1cc(C)cc(CC)c1C1C(=O)N2COC(C)CN2C1=O (stereo not given)")
100
>>> assayresult("CCc1cc(C)cc(CC)c1C1C(=O)N2CCC(C)(O)CCN2C1=O")
80
>>> assayresult("CCCc1cc(C)cc(CCC)c1C1C(=O)N2CCOCCN2C1=O")
80

Fill in Activity for each of the 4 compounds listed.
1. CCc1cc(C)cc(CC)c1C1C(=O)N2C[C@H]3COC[C@H]3CN2C1=O (stereo not given in full)
2. Cc1cc(C)c(C2C(=O)N3CCOCCN3C2=O)c(C(C)C)c1
3. C#Cc1cc(C)c(C2C(=O)N3CCOCCN3C2=O)c(CC)c1
4. Cc1cc(Br)c(C2C(=O)N3CCOCCN3C2=O)c(Br)c1

1. 100
2. 50
3. 20
4. 40

Fill in Activity for each of the 7 compounds listed.
1. CCc1cc(C)cc(CC)c1C1C(=O)N2CCOCN2C1=O (stereo not given)
2. Cc1cc(C)c(C2C(=O)N3CCOCCN3C2=O)c(C2CC2)c1
3. CCc1cc(C)cc(OC)c1C1C(=O)N2CCOCCN2C1=O
4. CCc1cc(CC)c(C2C(=O)N3CCOCCN3C2=O)c(CC)c1
5. CCc1cc(C)cc(CC)c1C1C(=O)N2CCOC(CC)CN2C1=O (stereo not given)
6. COc1cc(C)cc(Br)c1C1C(=O)N2CCOCCN2C1=O
7. CCCc1cc(C)cc(C)c1C1C(=O)N2CCOCCN2C1=O

[40, 90, 90, 60, 40, 60, 80]

Fill in Activity for each of the 8 compounds listed.
1. C#Cc1cc(C)cc(C)c1C1C(=O)N2CCOCCN2C1=O
2. CCc1cc(-c2ccccc2)cc(OC)c1C1C(=O)N2CCOCCN2C1=O
3. CCc1cc(C)cc(CC)c1C1C(=O)N2CCC(O)CCN2C1=O
4. CCc1cc(C)cc(CC)c1C1C(=O)N2CCOC(C)CN2C1=O (stereo not given)
5. CC#Cc1cc(C)cc(C)c1C1C(=O)N2CCOCCN2C1=O
6. C#Cc1cc(C)cc(C#C)c1C1C(=O)N2CCOCCN2C1=O
7. CCc1cc(C)c(C2C(=O)N3CCOCCN3C2=O)c(CC)c1
8. CCc1cc(I)cc(CC)c1C1C(=O)N2CCOCCN2C1=O

1: 100; 2: 100; 3: 100; 4: 40; 5: 40; 6: 90; 7: 50; 8: 0
